Test system: E. coli clinical strain 2018XJ105
testDescription: microbe, parasite or virus in culture
Type: cell-based, Escherichia coli
runParameters: clinical strain 2018XJ105
Method: All the florfenicol-polyarginine conjugates were tested against Gram-positive and Gram-negative bacteria, including MRSA (ATCC 43300), S. aureus (ATCC 25923), E. coli (ATCC 25922), clinical strains of E. coli (2019XJ06, 2019XJ25, 2018XJ108, 2018XJ105, 2018XJ30) and clinical strains of florfenicol resistant E. coli (2017XJ30, 2019XJ20). […]
Where a SMILES comes first, the peptide text is derived from it.
readoutName: MIC

COC(=O)[C@@H](N)CCCNC(=N)N [Compound D1]
>100 µM
N=C(N)NCCC[C@H](NC(=O)[C@H](CCCNC(=N)N)NC(=O)[C@H](CCCNC(=N)N)NC(=O)[C@H](CCCNC(=N)N)NC(=O)[C@H](CCCNC(=N)N)NC(=O)[C@H](CCCNC(=N)N)NC(=O)[C@H](CCCNC(=N)N)NC(=O)[C@@H](N)CCCNC(=N)N)C(N)=O [Compound D6]
50 µM
COC(=O)[C@H](CCCNC(=N)N)NC(=O)CCCC(=O)O[C@H](c1ccc(S(C)(=O)=O)cc1)[C@@H](CF)NC(=O)C(Cl)Cl [Compound E7]
>100 µM
COC(=O)[C@H](CCCNC(=N)N)NC(=O)CCC(=O)O[C@H](c1ccc(S(C)(=O)=O)cc1)[C@@H](CF)NC(=O)C(Cl)Cl [Compound E1]
25 µM
N=C(N)NCCC[C@H](N)C(N)=O [Compound D2]
>100 µM
N=C(N)NCCC[C@H](NC(=O)[C@H](CCCNC(=N)N)NC(=O)[C@H](CCCNC(=N)N)NC(=O)[C@@H](N)CCCNC(=N)N)C(N)=O [Compound D4] (H-RRRR-NH2)
>100 µM

Hi team, please reply with MIC for each item in this list.
1. COC(=O)[C@H](CCCNC(=N)N)NC(=O)CCCCC(=O)O[C@H](c1ccc(S(C)(=O)=O)cc1)[C@@H](CF)NC(=O)C(Cl)Cl [Compound E13]
2. CS(=O)(=O)c1ccc([C@@H](OC(=O)CCCCC(=O)N[C@@H](CCCNC(=N)N)C(N)=O)[C@@H](CF)NC(=O)C(Cl)Cl)cc1 [Compound E14]
3. CS(=O)(=O)c1ccc([C@@H](OC(=O)CCC(=O)N[C@@H](CCCNC(=N)N)C(N)=O)[C@@H](CF)NC(=O)C(Cl)Cl)cc1 [Compound E2]

Result:
1: >100 µM; 2: >100 µM; 3: 25 µM

Cited source for all entries: paper PMC9284121
